Values from patent US20240360228A1

Each entry below carries its reported % Positive cells.
# tested target: T1, human CCR8 (human, UniProt P51685 1-355)
# T1 construct: Native CCR8 on human PBMC (CCR8+ CD3+ or CCR8+ CD4+ lymphocytes); also called chemokine (C-C motif) receptor 8
# T1 sequence (P51685 whole entry): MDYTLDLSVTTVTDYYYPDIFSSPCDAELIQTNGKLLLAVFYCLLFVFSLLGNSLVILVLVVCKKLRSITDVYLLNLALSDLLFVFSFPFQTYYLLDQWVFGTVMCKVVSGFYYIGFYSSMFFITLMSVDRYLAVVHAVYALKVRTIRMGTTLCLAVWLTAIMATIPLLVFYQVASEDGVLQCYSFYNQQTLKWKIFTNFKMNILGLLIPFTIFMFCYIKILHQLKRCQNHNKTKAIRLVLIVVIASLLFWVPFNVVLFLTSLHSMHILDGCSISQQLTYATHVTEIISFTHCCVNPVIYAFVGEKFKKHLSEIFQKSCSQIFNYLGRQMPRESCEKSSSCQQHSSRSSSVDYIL
# assay overview: flow blocking, PBMC CCR8+CD4+; competitor PE-AB14
readout label: % Positive cells

1) AB14 (antibody, V domains shown, Hybridoma monoclonal; Same VH/VL entries as AB15; also called antibody 14; clone 14) VH: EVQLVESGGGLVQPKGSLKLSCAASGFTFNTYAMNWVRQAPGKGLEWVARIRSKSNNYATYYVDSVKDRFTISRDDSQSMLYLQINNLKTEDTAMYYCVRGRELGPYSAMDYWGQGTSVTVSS VL: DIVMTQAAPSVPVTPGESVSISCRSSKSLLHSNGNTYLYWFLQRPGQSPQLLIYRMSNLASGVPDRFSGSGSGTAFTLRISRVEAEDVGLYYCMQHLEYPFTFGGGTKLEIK | 0.02%
2) AB11 (antibody, V domains shown, Hybridoma monoclonal; also called antibody 11; clone 11) VH: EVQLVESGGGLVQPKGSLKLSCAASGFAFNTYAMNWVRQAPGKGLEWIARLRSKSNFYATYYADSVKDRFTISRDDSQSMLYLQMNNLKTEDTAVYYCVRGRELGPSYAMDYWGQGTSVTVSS VL: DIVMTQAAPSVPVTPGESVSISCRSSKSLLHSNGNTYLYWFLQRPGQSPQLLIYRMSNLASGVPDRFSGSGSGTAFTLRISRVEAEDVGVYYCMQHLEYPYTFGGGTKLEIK | 0.01%
3) AB13 (antibody, V domains shown, Hybridoma monoclonal; also called antibody 13; clone 13) VH: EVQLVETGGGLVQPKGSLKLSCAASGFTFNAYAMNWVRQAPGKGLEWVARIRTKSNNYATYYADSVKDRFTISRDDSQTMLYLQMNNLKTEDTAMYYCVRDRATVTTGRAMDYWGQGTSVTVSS VL: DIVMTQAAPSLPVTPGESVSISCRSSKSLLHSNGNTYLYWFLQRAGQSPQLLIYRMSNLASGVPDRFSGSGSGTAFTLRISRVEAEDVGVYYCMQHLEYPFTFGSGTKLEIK | 0.01%
4) AB1 (antibody, V domains shown, Hybridoma monoclonal (mouse or rat); Same VH/VL entries as AB2; also called antibody 1; clone 1) VH: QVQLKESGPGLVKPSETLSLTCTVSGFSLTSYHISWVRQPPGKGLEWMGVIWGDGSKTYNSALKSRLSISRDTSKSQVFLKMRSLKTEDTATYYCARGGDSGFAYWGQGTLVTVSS VL: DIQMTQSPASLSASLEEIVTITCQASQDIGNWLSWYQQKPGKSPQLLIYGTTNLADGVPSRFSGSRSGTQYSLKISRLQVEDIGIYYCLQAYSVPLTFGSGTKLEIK | 1.28%
5) AB5 (antibody, V domains shown, Hybridoma monoclonal; Same VH/VL entries as AB6; also called antibody 5; clone 5) VH: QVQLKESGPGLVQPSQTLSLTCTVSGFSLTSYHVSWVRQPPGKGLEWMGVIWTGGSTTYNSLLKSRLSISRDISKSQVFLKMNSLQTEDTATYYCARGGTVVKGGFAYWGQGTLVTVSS VL: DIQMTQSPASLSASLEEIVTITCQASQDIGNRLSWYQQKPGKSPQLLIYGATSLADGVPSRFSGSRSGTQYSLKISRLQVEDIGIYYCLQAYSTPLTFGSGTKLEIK | 1.63%
